Taken from patent US6818774B2.

Molecular target: human MAO-A (Homo sapiens)
Construct: expressed in transfected cells; host or cells: EBNA cells (transient transfection); cell membranes used
Sequence (P21397 whole entry): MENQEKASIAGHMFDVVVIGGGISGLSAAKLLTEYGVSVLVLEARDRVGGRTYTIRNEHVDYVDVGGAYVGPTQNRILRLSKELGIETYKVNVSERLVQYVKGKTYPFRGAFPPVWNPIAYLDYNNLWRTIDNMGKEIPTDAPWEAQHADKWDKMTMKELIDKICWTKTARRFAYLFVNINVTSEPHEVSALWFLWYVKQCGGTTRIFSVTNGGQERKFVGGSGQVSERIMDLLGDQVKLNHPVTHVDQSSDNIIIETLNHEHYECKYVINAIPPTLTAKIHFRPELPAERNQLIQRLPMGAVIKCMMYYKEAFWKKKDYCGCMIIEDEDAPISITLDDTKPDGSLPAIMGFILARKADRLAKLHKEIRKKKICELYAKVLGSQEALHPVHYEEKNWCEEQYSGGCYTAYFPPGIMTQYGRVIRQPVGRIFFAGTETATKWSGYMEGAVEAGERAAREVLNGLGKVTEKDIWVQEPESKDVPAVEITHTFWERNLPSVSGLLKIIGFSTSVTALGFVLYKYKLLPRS
Experiment: MAO-A enzymatic activity, spectrophotometric assay (tyramine, Amplex Red) on membranes of transfected EBNA cells
Type: biochemical
Conditions: membranes, 30 min preincubation at 37° C., pH 7.4, substrate tyramine; read-out: IC50 MAO-A
ASSAY_METRIC: IC50 (µM)
Answers are plain numbers, in µM.

O=C1NCCc2cc(OCc3cccc(F)c3)ccc21 [Example 1] | 5.24

Now consider a different molecule.
The molecule NC(=O)CN1CCc2cc(OCc3cccc(F)c3)ccc2C1=O [Example 6] showed IC50 equal to 0.33
